Test system: CASKI
Test: Primary qHTS to identify gynecologic anti-cancer compounds using libraries of approved drugs and bioactive compounds (AID 1345084); note: nearly all actives have a fitted effect of over 55% in size; note: potency is the fitted concentration of half-maximal effect
Details: Gynecologic cancer cell panel viability, ATPlite luminescence, 48 h; series mostly up to 57.5 µM
Records with an inconclusive call do not appear. Activity calls are given as the source filed them. Calls come from the whole dose curve; as a rule, active = well fitted cell-killing curve with a large enough effect; inconclusive = small, poorly fitted or top-dose-only effect, or effect the other way; inactive = flat fitted curve, though single readings scatter.
Measured property: Potency

Record excerpt, results attached:
{"columns": ["Molecule", "Potency"],
 "data": [
  ["NCc1c[nH]c(=S)n1[C@@H]1CCc2c(F)cc(F)cc2C1", "inactive"],
  ["COc1ccc2c(OC)c3ccoc3nc2c1OC", "inactive"],
  ["C[C@H]1O[C@@H](O[C@H]2CC[C@@]3(C)C(CC[C@]4(C)C3CC=C3C5CC(C)(C)CC[C@]5(C(=O)O)CC[C@]34C(=O)O)C2(C)C)[C@H](O)[C@@H](O)[C@@H]1O (stereo partly drawn)", "inactive"],
  ["O=C(Nc1ccc(S(=O)(=O)Nc2ccccc2Cl)c(Cl)c1)c1ccccn1", "inactive"],
  ["Cc1[nH]c2ccccc2c1CCNC(=O)c1ccccc1F", "inactive"],
  ["Cc1ccc(F)cc1C(=O)Nc1ccc(C(=O)N2Cc3cccn3Cc3ccccc32)c(Cl)c1", "inactive"],
  ["O=C(O)c1ccccc1NC(=O)N1CCC(c2ccccc2C(F)(F)F)CC1", "inactive"],
  ["COc1cc(C2Oc3c(OC)cc(CCCO)cc3C2CO)ccc1O[C@H]1O[C@H](C)[C@@H](O)[C@H](O)[C@@H]1O (stereo partly drawn)", "inactive"]
]}

Give its Potency value. Item: CN(C)C/C=C/C(=O)Nc1cccc(C(=O)Nc2ccc(Nc3nccc(-c4cccnc4)n3)cc2)c1
7.08 µM (active)

Can you handle COC(=O)C1(C)CCC2(C(=O)O)CCC3(C)C(=CCC4C5(C)CC(O)C(OC6OCC(O)C(O)C6O)C(C)(CO)C5CCC43C)C2C1 (stereo not drawn) next?
inactive

And CC(=O)O[C@@H]1[C@@H](O)[C@H](O[C@H]2CC[C@]34C[C@]35CC[C@]3(C)[C@@H]([C@@]6(C)CC[C@@H](C(C)(C)O)O6)[C@@H](O)C[C@@]3(C)[C@@H]5C[C@H](O[C@@H]3O[C@H](CO)[C@@H](O)[C@H](O)[C@H]3O)[C@H]4C2(C)C)OC[C@H]1O ?
inactive

Same lookup for COc1c2c(c(C)c3c1C(=O)OC3)OC1(C)CC(O)C34OC(OC)(CC(OC(C)=O)C3(C)C1C2)OC4(C)C (stereo not drawn) , please.
inactive

Try this molecule too: OC[C@H]1O[C@@H](Oc2cc(O)c3c(c2)O[C@@H](c2ccc(O)cc2)[C@H](O)C3)[C@H](O)[C@@H](O)[C@@H]1O
inactive

Try this molecule too: OCc1ccc(O[C@@H]2O[C@H](CO)[C@@H](O)[C@H](O)[C@H]2O)cc1
inactive

Also COc1cc(O)cc(C)c1C(=O)O[C@H]1[C@@H](OC(C)=O)[C@H](n2ccc(=O)[nH]c2=O)O[C@@H]1CO ?
inactive

And what about the molecule CC1CC(=O)C2=C(CCC3(O)C(O)c4c(O)cccc4C(=O)C23O)C1 (stereo not drawn) ?
inactive

Same thing, different molecule: COC(=O)C1=CO[C@@H](O[C@@H]2O[C@H](CO)[C@@H](O)[C@H](O)[C@H]2O)[C@H]2[C@@H]1C=C[C@@]21C=C([C@H](C)O)C(=O)O1
inactive

Proceed to Cc1ccc(-c2c(C(=O)CF)n(CCCO)c3ncnc(N)c23)cc1
inactive

Further, for CCC(O)C(C)C1CCC(C(C)C(=O)O)O1 (stereo not drawn) ?
inactive

Next: C=C1C(=O)OC2CC(C)=C(C(C)CCCO)C(O)C12 (stereo not drawn)
inactive

Let us now turn to CC(C)[N+]1(C)C2CCC1CC(OC(=O)C(CO)c1ccccc1)C2 (stereo not drawn)
inactive

Please do the same for CC1(C)CCCC2(C)C(CO)C(CO)=CCC12 (stereo not drawn) as well.
inactive

Queued: O=C(O)c1cc(I)ccc1NC(=O)[C@H](Cc1ccccc1)NCc1ccccc1
inactive

Queued: C=C[C@]1(C)C[C@H](O)[C@@H]2[C@H](OC(=O)[C@@H]2C)C1/C(C)=C/O[C@@H]1O[C@H](CO)[C@@H](O)[C@H](O)[C@H]1O (stereo partly drawn)
inactive

Entry to check: NCc1ccc(Nc2ncc(F)c(Nc3ccccc3)n2)cc1
inactive

What about this molecule? COC(=O)[C@@H](O)[C@H]1[C@@]2(C)CC3(O)[C@@H](C(=O)[C@H]2O)[C@]24O[C@]25CC(=O)O[C@@H](c2ccoc2)[C@]5(C)CCC4[C@]13C (stereo partly drawn)
inactive

Also, CC1(C)CC[C@]2(C(=O)O)CC[C@]3(C)C(=CCC4[C@@]5(C)C[C@@H](O)[C@H](O)C(C)(C)C5CC[C@]43C)C2C1 (stereo partly drawn) please.
inactive

Then what about the molecule COC(=O)c1ccccc1O[C@@H]1O[C@H](CO)[C@@H](O)[C@H](O)[C@H]1O[C@@H]1O[C@@H](C)[C@H](O)[C@@H](O)[C@H]1O ?
inactive

Cited source: PubChem BioAssay (NCATS)
